tested on: epidermoid carcinoma of the nasopharynx (KB); test: Cytotoxicity Assays Method C, KB; format: cell-based; conditions: KB, 50% reduction in cell number after 72 hr of incubation; read-out: IC50 KB
Simple rule here: IC50 less than 5 µM is yes (1), otherwise no (0).

Q: Dear colleague, could you confirm whether IC50 of O=C(O)c1cc2c(s1)C(=O)c1sccc1C2=O [XI-NH4] falls below 5 µM? Thanks.
A: no (0)

Q: Consider O=C(O)c1cc2c(s1)C(=O)c1ccsc1C2=O [XIV-NH4] . Does its IC50 lie strictly below 5 µM?
A: no (0)

Q: Regarding CC(OCC(=O)[O-])c1cc2c(s1)C(=O)c1ccsc1C2=O.[Na+] (stereo not shown) [IX-Na] , kindly confirm whether its IC50 is beneath 5 µM.
A: yes (1)

Q: Consider COc1cccc2c1C(=O)c1c(O)c3c(c(O)c1C2=O)C[C@@](O)(C(=O)CO)C[C@@H]3O[C@H]1C[C@H](N)[C@H](O)[C@H](C)O1 [Doxorubincin, reference compound] . Does its IC50 lie strictly below 5 µM?
A: yes (1)

Q: Hi there! Is IC50 for COc1cc([C@@H]2c3cc4c(cc3[C@@H](O[C@@H]3O[C@@H]5CO[C@@H](C)O[C@H]5[C@H](O)[C@H]3O)[C@H]3COC(=O)[C@H]23)OCO4)cc(OC)c1O [VP-16, reference compound] below 5 µM, do you know?
A: yes (1)

Q: Hello, I'm reviewing records and need to know if IC50 of CC(OCC(=O)O)c1cc2c(s1)C(=O)c1ccsc1C2=O (stereo not shown) [IX] is below 5 µM. Could you check?
A: no (0)

Q: Find out if reported IC50 for CC[C@]1(O)C[C@H]2CN(CCc3c([nH]c4ccccc34)[C@@](C(=O)OC)(c3cc4c(cc3OC)N(C=O)[C@H]3[C@@](O)(C(=O)OC)[C@H](OC(C)=O)[C@]5(CC)C=CCN6CC[C@]43[C@@H]65)C2)C1 [VCR, reference compound] is less than 5 µM
A: yes (1)

###

experiment: Water solubility; assay type: physicochemical; conditions: water; in H2O
Please go through the items and note down their solubility.

Q: Which value of solubility has been reported for CC(OC(=O)CCCC(=O)[O-])c1cc2c(s1)C(=O)c1sccc1C2=O.[Na+] (stereo not drawn) in the records?
A: ≥ 9.6 mg/mL

Q: # lookup: solubility of CC(OCC(=O)[O-])c1cc2c(s1)C(=O)c1sccc1C2=O.[Na+] (stereo not drawn)
A: ≥ 3.2 mg/mL

Q: Looking for the measured solubility of `C[C@H](NC(=O)c1cc2c(s1)C(=O)c1ccsc1C2=O)C(=O)[O-].[Na+]` , can you help?
A: ≥ 3.2 mg/mL

Q: Which solubility is reported for this molecule? `C[C@H](NC(=O)c1cc2c(s1)C(=O)c1sccc1C2=O)C(=O)[O-].[Na+]`
A: ≥ 6.6 mg/mL

Q: Which solubility reading was recorded for the molecule CC(OC(=O)CCC(=O)[O-])c1cc2c(s1)C(=O)c1ccsc1C2=O.[Na+] (stereo not drawn) ?
A: ≥ 10 mg/mL

Q: Given the entry `O=C([O-])CCC(=O)OCc1cc2c(s1)C(=O)c1sccc1C2=O.[Na+]` , report its measured solubility.
A: ≥ 10 mg/mL

###

Tested on: p-gp-expressing epidermoid carcinoma of the nasopharynx (KB-VIN)
Test: Cytotoxicity Assays Method C, KB-VIN
Format: cell-based
Details: 50% reduction in cell number after 72 hr of incubation
Excerpt: Cytotoxicity Assays Method C (KB, KB-VIN, AS49, HCT-8, PC-3) [K. H. Lee et. al. Planta Med. 54, 308-312 (1998), Monk A et. al. J. Natl. Cancer Inst. 83, 757-766 (1991).] The cell lines included epidermoid caninoma of the nasopharynx (KB), p-gp-expressing epidermoid caninoma of the nasopharynx (KB-VIN), lung carcinoma (A-549), ileocecal carinoma (HCT-8) and prostate cancer (PC-3) cell lines.
ASSAY_ENDPOINT: pIC50
Note on units: pIC50 is unitless, being -log10 of a concentration expressed in mol/L.

Q: Param readout = pIC50; param system = p-gp-expressing epidermoid carcinoma of the nasopharynx (KB-VIN); param query = CC(OCC(=O)O)c1cc2c(s1)C(=O)c1ccsc1C2=O (stereo not shown) ; response: value
A: 4.74

Q: Recorded pIC50 for CC(OC(=O)CCCC(=O)[O-])c1cc2c(s1)C(=O)c1sccc1C2=O.[Na+] (stereo not shown) with p-gp-expressing epidermoid carcinoma of the nasopharynx (KB-VIN), please?
A: 5.95

Q: Look up pIC50 with p-gp-expressing epidermoid carcinoma of the nasopharynx (KB-VIN) for this compound: CC(OC(=O)CCCC(=O)O)c1cc2c(s1)C(=O)c1ccsc1C2=O (stereo not shown)
A: 6.62

Q: So what pIC50 did `O=C([O-])CCC(=O)OCc1cc2c(s1)C(=O)c1sccc1C2=O.[Na+]` get with p-gp-expressing epidermoid carcinoma of the nasopharynx (KB-VIN)?
A: 5.42

Q: Form: Entry = CC(OC(=O)CCCC(=O)[O-])c1cc2c(s1)C(=O)c1ccsc1C2=O.[Na+] (stereo not shown) | System = p-gp-expressing epidermoid carcinoma of the nasopharynx (KB-VIN) | pIC50 = ____
A: 6.17

Q: # query: pIC50 | item CC(OC(=O)CCC(=O)O)c1cc2c(s1)C(=O)c1ccsc1C2=O (stereo not shown) | system: p-gp-expressing epidermoid carcinoma of the nasopharynx (KB-VIN)
A: 6.66

Q: Observed pIC50 on p-gp-expressing epidermoid carcinoma of the nasopharynx (KB-VIN) for `O=C(O)c1cc2c(s1)C(=O)c1sccc1C2=O` , please.
A: 4.44

Q: Return pIC50 measured with p-gp-expressing epidermoid carcinoma of the nasopharynx (KB-VIN) given this compound: `O=C([O-])CCCC(=O)OCc1cc2c(s1)C(=O)c1sccc1C2=O.[Na+]`
A: 5.88

Q: API: value(readout= pIC50, system= p-gp-expressing epidermoid carcinoma of the nasopharynx (KB-VIN), query= CC(OC(=O)CCCC(=O)O)c1cc2c(s1)C(=O)c1sccc1C2=O (stereo not shown) )
A: 7.30

Q: Observed pIC50 on p-gp-expressing epidermoid carcinoma of the nasopharynx (KB-VIN) for COc1cccc2c1C(=O)c1c(O)c3c(c(O)c1C2=O)C[C@@](O)(C(=O)CO)C[C@@H]3O[C@H]1C[C@H](N)[C@H](O)[C@H](C)O1 [Doxorubincin, reference compound] , please.
A: 5.30

Q: Query for p-gp-expressing epidermoid carcinoma of the nasopharynx (KB-VIN): what pIC50 does the record show for CC(OC(=O)CCC(=O)[O-])c1cc2c(s1)C(=O)c1sccc1C2=O.[Na+] (stereo not shown) ?
A: 6.33

Q: Request - read-out pIC50 | tested on p-gp-expressing epidermoid carcinoma of the nasopharynx (KB-VIN) | compound CC[C@]1(O)C[C@H]2CN(CCc3c([nH]c4ccccc34)[C@@](C(=O)OC)(c3cc4c(cc3OC)N(C=O)[C@H]3[C@@](O)(C(=O)OC)[C@H](OC(C)=O)[C@]5(CC)C=CCN6CC[C@]43[C@@H]65)C2)C1 [VCR, reference compound]
A: 5.27

Q: Find the measured pIC50: item CC(OCC(=O)[O-])c1cc2c(s1)C(=O)c1ccsc1C2=O.[Na+] (stereo not shown) , target or system p-gp-expressing epidermoid carcinoma of the nasopharynx (KB-VIN).
A: 6.00

Q: Reported pIC50 for p-gp-expressing epidermoid carcinoma of the nasopharynx (KB-VIN), given CC(OC(=O)CCC(=O)[O-])c1cc2c(s1)C(=O)c1ccsc1C2=O.[Na+] (stereo not shown) ?
A: 5.71

Q: Give p-gp-expressing epidermoid carcinoma of the nasopharynx (KB-VIN) pIC50 for `O=C(O)c1cc2c(s1)C(=O)c1ccsc1C2=O`
A: 4.44

The origin of these recorded values is patent US7332615B2.
